assay: in vivo; set-up: species or system Balb/c nude mice; settings: Balb/c nude, mouse, iv, total radioactivity, Tumor/blood ratio
Square brackets hold non-standard residues; d marks the D form. Peptide text beside a SMILES is read from it. * marks the point of attachment. NOTA = O=C(O)CN1CCN(CC(=O)O)CCN(CC(=O)*)CC1; 2Thi = N[C@@H](Cc1cccs1)C(=O)O; Nle = CCCC[C@H](N)C(=O)O; AEEA = NCCOCCOCC(=O)O; βAla = NCCC(=O)O
reported metric: tissue to tissue ratio at 0.5 h
The reply should be a number, written without any unit.

Request: Need tissue to tissue ratio at 0.5 h, item CCCC[C@H](NC(=O)[C@H](Cc1cccs1)NC(=O)[C@H](Cc1c[nH]cn1)NC(=O)CCNC(=O)[C@@H](NC(=O)[C@H](C)NC(=O)[C@H](Cc1c[nH]c2ccccc12)NC(=O)[C@H](CCC(N)=O)NC(=O)[C@@H](Cc1ccc(O)cc1)NC(=O)COCCOCCNC(=O)CN1CCN(CC(=O)O)CCN(CC(=O)O)CC1)C(C)C)C(N)=O [^64Cu/NOTA-monomer, metal not drawn] ({NOTA-AEEA}-[dY]QWAV[βAla]H[2Thi][Nle]-NH2)
Response: 1.49

* * *

assay: in vivo; parameters: species or system Balb/c nude mice; settings: Balb/c nude, mouse, total radioactivity, Biodistribution Pancreas
Square brackets hold non-standard residues; d marks the D form. Peptide text beside a SMILES is read from it. * marks the point of attachment. NOTA = O=C(O)CN1CCN(CC(=O)O)CCN(CC(=O)*)CC1; 2Thi = N[C@@H](Cc1cccs1)C(=O)O; Nle = CCCC[C@H](N)C(=O)O; AEEA = NCCOCCOCC(=O)O; βAla = NCCC(=O)O
reported metric: tissue uptake at 0.5 h (%ID/g)
Field format: number, assumed %ID/g, no unit text.

Request: Need tissue uptake at 0.5 h, item CCCC[C@H](NC(=O)[C@H](Cc1cccs1)NC(=O)[C@H](Cc1c[nH]cn1)NC(=O)CCNC(=O)[C@@H](NC(=O)[C@H](C)NC(=O)[C@H](Cc1c[nH]c2ccccc12)NC(=O)[C@H](CCC(N)=O)NC(=O)[C@@H](Cc1ccc(O)cc1)NC(=O)COCCOCCNC(=O)CN1CCN(CC(=O)O)CCN(CC(=O)O)CC1)C(C)C)C(N)=O [^64Cu/NOTA-monomer, metal not drawn] ({NOTA-AEEA}-[dY]QWAV[βAla]H[2Thi][Nle]-NH2)
Response: 5.1

* * *

experiment: in vivo; set-up: species or system Balb/c nude mice; settings: Balb/c nude, mouse, total radioactivity, Biodistribution Liver
Square brackets hold non-standard residues; d marks the D form. Peptide text beside a SMILES is read from it. * marks the point of attachment. NOTA = O=C(O)CN1CCN(CC(=O)O)CCN(CC(=O)*)CC1; 2Thi = N[C@@H](Cc1cccs1)C(=O)O; Nle = CCCC[C@H](N)C(=O)O; AEEA = NCCOCCOCC(=O)O; βAla = NCCC(=O)O
reported metric: tissue uptake at 0.5 h (%ID/g)
Field format: number, assumed %ID/g, no unit text.

Request: Need tissue uptake at 0.5 h, item CCCC[C@H](NC(=O)[C@H](Cc1cccs1)NC(=O)[C@H](Cc1c[nH]cn1)NC(=O)CCNC(=O)[C@@H](NC(=O)[C@H](C)NC(=O)[C@H](Cc1c[nH]c2ccccc12)NC(=O)[C@H](CCC(N)=O)NC(=O)[C@@H](Cc1ccc(O)cc1)NC(=O)COCCOCCNC(=O)CN1CCN(CC(=O)O)CCN(CC(=O)O)CC1)C(C)C)C(N)=O [^64Cu/NOTA-monomer, metal not drawn] ({NOTA-AEEA}-[dY]QWAV[βAla]H[2Thi][Nle]-NH2)
Response: 5.38
